Below, each entry is listed with its recorded pKd.
Biological target: T1, PD-L1 recombinant protein (human, UniProt Q9NZQ7 19-238, limits assumed)
T1 construct: also called PD-L1 antigen
T1 sequence (Q9NZQ7 19-238 limits assumed): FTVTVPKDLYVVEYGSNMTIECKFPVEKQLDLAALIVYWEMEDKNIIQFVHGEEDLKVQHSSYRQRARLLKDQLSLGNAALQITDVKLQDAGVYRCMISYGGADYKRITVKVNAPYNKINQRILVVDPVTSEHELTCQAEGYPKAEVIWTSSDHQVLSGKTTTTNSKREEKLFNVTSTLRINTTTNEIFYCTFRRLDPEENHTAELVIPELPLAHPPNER
Experiment: ForteBio Octet RED96, PD-L1 immobilised, antibody in solution
Source text: The antigen was immobilized on the sensor chip surface and the tested antibodies were flown over the immobilized antigens.
pKd: −log10 of the molar value.

{"Binder": "PL221G5 Fc-scFv (Fc fusion, scFv at the C-terminus of an Fc; The Fc part is not specified; not shown: The Fc part and the linker joining it to the scFv) scFv: EVQLLESGGGLVQPGGSLRLSCAASGFSFSSGYDMCWVRQAPGKGLEWIACIAAGSAGITYDANWAKGRFTISRDNSKNTLYLQMNSLRAEDTAVYYCARSAFSFDYAMDLWGQGTLVTVSSGGGGSGGGGSGGGGSGGGGSDIQMTQSPSTLSASVGDRVTITCQASQSISSHLNWYQQKPGKAPKLLIYKASTLASGVPSRFSGSGSGTEFTLTISSLQPDDFATYYCQQGYSWGNVDNVFGGGTKVEIK", "pKd": 9.39}
{"Binder": "PL004B9 mAb (antibody, V domains shown, Anti-PD-L1 clone tested in mAb format) VH: EVQLVESGGGLVQPGGSLRLSCTVSGIDLSVINMGWVRQAPGKGLEWIGTITYVGNTYYASWAKGRFTISKTSTTVDLKITSPTTEDTAVYYCARESGTIYYSYFNLWGQGTLVTVSS VL: AFELTQSPSSLSASVGDRVTIKCQASESISNYLSWYQQIPGKVPKLLIYYASNLASGVPSRFSGSGSGTDFTLTISSLQPEDVATYYCQSYYGGGSAYTFGGGTKVEIK", "pKd": 8.86}
{"Binder": "PL221G5 mAb (antibody, V domains shown, Anti-PD-L1 clone tested in mAb format) VH: EVQLLESGGGLVQPGGSLRLSCAASGFSFSSGYDMCWVRQAPGKGLEWIACIAAGSAGITYDANWAKGRFTISRDNSKNTLYLQMNSLRAEDTAVYYCARSAFSFDYAMDLWGQGTLVTVSS VL: DIQMTQSPSTLSASVGDRVTITCQASQSISSHLNWYQQKPGKAPKLLIYKASTLASGVPSRFSGSGSGTEFTLTISSLQPDDFATYYCQQGYSWGNVDNVFGGGTKVEIK", "pKd": 9.32}
